Test system: BC19 CAR on CAR-T cells (anti-BCMA scFv, humanized anti-CD19 scFv, hinge)
Assay: flow cytometry
Details: SPR: Biacore 1K, CM5 chip, protein coupled at 20 ug/mL in sodium acetate pH 5.0 (running buffer not given); cell binding: D-PBS, 4.5 g/L glucose, 5 mM MgCl2, 0.
Parameter measured: Kd (nM)
The answer is to be given in nM; state only the numeric part.

Problem: What value of Kd has been reported for the following sequence? TTCAGCACTCCACGCATAGCACGCTGCCGTGTGCTGCATGTGGTCGTGTGTCCGTGCCTATGCGTGCTACCGTGAA [FAM-Aptamer A3]
Result: 17

Data origin, for the record: paper PMC12302554
